Molecular target: HCV NS5B RdRp genotype 1b (Hepatitis C virus genotype 1b)
Construct: The protein was expressed with an 18 amino acid C-terminal truncation to enhance the solubility; made in house; host or cells: E. coli BL21(DE3), pET21a vector
Sequence (Q9WMX2 2420-2992): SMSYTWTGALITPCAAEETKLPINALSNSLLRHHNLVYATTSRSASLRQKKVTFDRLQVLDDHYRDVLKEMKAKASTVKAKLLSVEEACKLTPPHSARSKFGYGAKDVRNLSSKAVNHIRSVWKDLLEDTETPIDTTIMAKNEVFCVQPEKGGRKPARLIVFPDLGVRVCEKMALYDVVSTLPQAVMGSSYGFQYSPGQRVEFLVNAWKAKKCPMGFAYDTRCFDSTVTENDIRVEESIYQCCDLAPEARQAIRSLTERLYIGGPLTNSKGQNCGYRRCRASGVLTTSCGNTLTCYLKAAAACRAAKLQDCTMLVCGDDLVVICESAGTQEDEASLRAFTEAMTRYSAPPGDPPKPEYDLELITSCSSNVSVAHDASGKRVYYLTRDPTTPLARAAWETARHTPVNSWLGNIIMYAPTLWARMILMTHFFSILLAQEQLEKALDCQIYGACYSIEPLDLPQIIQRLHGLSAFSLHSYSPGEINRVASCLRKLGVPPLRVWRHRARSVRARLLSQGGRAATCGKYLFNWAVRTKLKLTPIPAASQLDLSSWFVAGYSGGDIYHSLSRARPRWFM
Experiment: HCV NS5B RdRp enzyme assay (standard / modified)
Type: biochemical
Conditions: Table 1; HCV NS5B genotype 1b
# maps each entry to its IC50
QUANTITY MEASURED: IC50

>>> result("CNC(=O)c1c(-c2ccc(F)cc2)nn2ccc(-c3cc(C(=O)NC4(c5ccccc5F)CC4)c(OC)cc3C)c(F)c12")
"0.002 to 0.25 µM"
>>> result("CNC(=O)c1c(-c2ccc(F)cc2)nn2ccc(-c3cc(C(=O)NC4(c5nc(C)no5)CC4)ccc3C)c(F)c12")
"1 to 10 µM"
>>> result("CNC(=O)c1c(-c2ccc(F)cc2)nn2ccc(OC)cc12")
"> 10 µM"
>>> result("CNC(=O)c1c(-c2ccc(F)cc2)nc2ccc(-c3cccc(C(=O)NC4(c5ccccc5)CC4)c3)cn12")
"0.002 to 0.25 µM"
>>> result("CNC(=O)c1c(-c2ccccc2)nn2cc(N3CCOC3=O)ccc12")
"> 10 µM"
